B1: SETD8 (parent)
chain: GKQAPRKKAQGKTQQNRKLTDFYP

Variants of: B1
Assay: protein stability index of a GFP-peptide fusion (GPS, HEK-293T) (PSI 1-6); higher = more stable;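 further: lentivirally expressed fusions sorted by FACS into six bins by GFP to DsRed ratio, PSI derived from sequencing read proportions per bin multiplied by bin number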
Conditions: c terminus: a fixed tail appended
Please note: t applies when protein stability index is 3 or greater, and f applies otherwise.

>>> cat("R6N")
"t"
>>> cat("Q14S")
"f"
>>> cat("R6E")
"t"
>>> cat("Q3D")
"t"
>>> cat("G1M")
"f"
>>> cat("A4C")
"t"
>>> cat("G1P")
"t"
>>> cat("R17G")
"t"

Exam item: Hello, I need to know if Q15L has measured protein stability index not below 3. Thanks!
Marked response: f

Exam item: Assess whether reported protein stability index for F22P sits at 3 or higher.
Marked response: t

Exam item: Has Y23I a recorded protein stability index greater than or equal to 3?
Marked response: t
